assay: PK of compound of Formula (Ia) after single intramuscular dose of solution formulations in Wistar Han rats; format: in vivo; conditions: Wistar Han, rat, plasma, intramuscular, 100 mg/kg, Solution H (~400 mg/mL); IM 100 mg/kg; Wistar Han rats; individual animals #1-#4; 48.0 h; read-out: Plasma concentration
experimental-readout: concentration at 48 h (nM)
Answers are plain numbers, in nM.

Req: Give the measured concentration at 48 h for CC(C)(C#Cc1ccc(-c2ccc(Cl)c3c(NS(C)(=O)=O)nn(CC(F)(F)F)c23)c([C@H](Cc2cc(F)cc(F)c2)NC(=O)Cn2nc(C(F)(F)F)c3c2C(F)(F)[C@@H]2C[C@H]32)n1)S(C)(=O)=O
Resp: 354

* * *

Assay: PK of compound of Formula (Ia) after single subcutaneous dose of solution formulations in beagle dogs
Type: in vivo
Conditions: male, beagle, dog, plasma, sc, 6 mg/kg, mean ± SD, n = 3 dogs; SC 6 mg/kg; solution V, 300 mg/mL; read-out: AUC0-1680 h
Procedure: Formulations containing the compound of Formula (Ia), or a pharmaceutically acceptable salt thereof, were prepared as solutions and optionally administered subcutaneously or intramuscularly to rats, rabbits, and/or dogs. A solution of about 400 mg/mL of the compound of Formula (Ia) having 17.00 w/w % water, 36.40 w/w % PEG 300, 35.20 w/w % of a sodium salt of a compound of Formula (Ia), 5.00 w/w % ethanol, and 6.40 w/w % poloxamer 188 was prepared. […]
experimental-readout: AUC(0-t) (µM·h)
Numbers only, in µM·h.

Req: Give the measured AUC(0-t) for CC(C)(C#Cc1ccc(-c2ccc(Cl)c3c(NS(C)(=O)=O)nn(CC(F)(F)F)c23)c([C@H](Cc2cc(F)cc(F)c2)NC(=O)Cn2nc(C(F)(F)F)c3c2C(F)(F)[C@@H]2C[C@H]32)n1)S(C)(=O)=O [compound of Formula (Ia)]
Resp: 103

* * *

assay: PK of compound of Formula (Ia) after single subcutaneous dose of solution formulations in Wistar Han rats; format: in vivo; settings: male, Wistar Han, rat, plasma, sc, 50 mg/kg, Wistar Han rats, SC 50 mg/kg, 400 mg/mL solution W (5.00% ethanol, 1.57% poloxamer 188), 504 h, animals #1-#3
experimental-readout: concentration at 504 h (nM)
Give bare numbers, in nM.

Req: Give the measured concentration at 504 h for CC(C)(C#Cc1ccc(-c2ccc(Cl)c3c(NS(C)(=O)=O)nn(CC(F)(F)F)c23)c([C@H](Cc2cc(F)cc(F)c2)NC(=O)Cn2nc(C(F)(F)F)c3c2C(F)(F)[C@@H]2C[C@H]32)n1)S(C)(=O)=O
Resp: 194

* * *

assay: PK of compound of Formula (Ia) after single subcutaneous dose of solution formulations in beagle dogs; format: in vivo; conditions: male, beagle, dog, plasma, sc, 12 mg/kg, beagle dogs, SC 12 mg/kg, 400 mg/mL solution Z (3.13% poloxamer 188), 1.00 h, Mean
experimental-readout: concentration at 1 h
Field: value (include unit after the number)

Req: Give the measured concentration at 1 h for CC(C)(C#Cc1ccc(-c2ccc(Cl)c3c(NS(C)(=O)=O)nn(CC(F)(F)F)c23)c([C@H](Cc2cc(F)cc(F)c2)NC(=O)Cn2nc(C(F)(F)F)c3c2C(F)(F)[C@@H]2C[C@H]32)n1)S(C)(=O)=O
Resp: 1.58 nM
